// provenance: ChEMBL document CHEMBL2163207

Tested on: Plasma
Test: Plasma concentration in rat
Format: ADME, cell-free
assay-endpoint: concentration (nM)
Could you give me the number in nM? Just the number is fine.

Exercise: Requested read-out: concentration. Entry: Cc1ccc(-c2cc(C(F)(F)F)nn2-c2ccc(S(N)(=O)=O)cc2)cc1
Key: 1000

* * *

Tested on: MDA-MB-231
Experiment: Cytotoxicity against human MDA-MB-231 cells after 48 hrs by MTS assay
Format: functional, cell-based
Settings: MDA-MB-231, 48 h
The reader will find reported pIC50 values listed item by item below.
pIC50 (log units): -log10 of the concentration in mol/L.

| smiles | pIC50 |
| --- | --- |
| Cc1ccc(C)c(-c2cc(C(F)(F)F)nn2-c2ccc(S(N)(=O)=O)cc2)c1 | 4.44 |

Lab note: next compound to report on.
Exercise: Requested read-out: pIC50. Entry: Cc1ccc(-c2cc(C(F)(F)F)nn2-c2ccc(S(N)(=O)=O)cc2)cc1
Key: 4.40
